- measurement.protocol: solvent given as SMILES
- particulars: in ClCCl
measurement.kind: log10 of fluorescence lifetime (log10 of the value in ns)
Note: values are log10 of fluorescence lifetime expressed in ns.

| compound | measurement |
| --- | --- |
| CC(C)(C)c1ccc(C#Cc2cc3ccc4cc(C#Cc5ccc(C(C)(C)C)cc5)cc5ccc(c2)c3c45)cc1 | 1.57 |

Respond only with log10 of fluorescence lifetime recorded for "C[Si]1(C)c2ccccc2-c2ccccc21"
-0.82

Look up and state reported log10 of fluorescence lifetime for C1=CC2=CC=CC3C=c4c(cc5cccc6cccc4c65)C(=C1)C23 (stereo not given)
0.86

Specify log10 of fluorescence lifetime for "COc1ccc(-c2nc(-c3ccccc3O)c(-c3ccccc3O)n2-c2ccc(C)cc2)cc1" and stop.
0.41

Answer with the recorded log10 of fluorescence lifetime for the compound listed here: CCCCC1=Cc2c3ccc4cccc5ccc(c6cc(-c7ccccc7)n(c26)P1(=O)c1ccccc1)c3c45 (stereo not given)
0.20
